# Test system: Staphylococcus aureus
# procedure summary: Antibacterial activity against methicillin-resistant Staphylococcus aureus 15 after 24 hrs by microbroth dilution method
# Format: functional
# run parameters: Staphylococcus aureus, 15, 24 h
Catalogue of MIC readings, one per entry.

| compound | MIC |
| --- | --- |
| CCCOc1c2cc(C[N+](C)(CCO)CCO)cc1Cc1cc(C[N+](C)(CCO)CCO)cc(c1OCCC)Cc1cc(C[N+](C)(CCO)CCO)cc(c1OCCC)Cc1cc(C[N+](C)(CCO)CCO)cc(c1OCCC)C2.[Cl-].[Cl-].[Cl-].[Cl-] | 4 µg/mL |
| CN(C)[C@@H]1C(O)=C(C(N)=O)C(=O)[C@@]2(O)C(O)=C3C(=O)c4c(O)cccc4[C@@](C)(O)[C@H]3C[C@@H]12 | 1 µg/mL |
| CC1COc2c(N3CCN(C)CC3)c(F)cc3c(=O)c(C(=O)O)cn1c23 (centres undefined) | 512 µg/mL |
| O=C(N[C@H](CO)[C@H](O)c1ccc([N+](=O)[O-])cc1)C(Cl)Cl | 8 µg/mL |

====

# System: Pseudomonas aeruginosa
# procedure summary: Bactericidal activity against Pseudomonas aeruginosa isolate 1 incubated for 24 hrs followed by replating on Mueller hinton agar plates and measured after 24 hrs
# Type: functional
# run parameters: isolate 1, 24 h
Catalogue of MBC readings, one per entry.

| compound | tested on | MBC / µg/mL |
| --- | --- | --- |
| CC1COc2c(N3CCN(C)CC3)c(F)cc3c(=O)c(C(=O)O)cn1c23 (centres undefined) [OFLOXACIN] | Pseudomonas aeruginosa | 512 |
| O=C(N[C@H](CO)[C@H](O)c1ccc([N+](=O)[O-])cc1)C(Cl)Cl [CHLORAMPHENICOL] | Pseudomonas aeruginosa | 1020 |
| CN(C)[C@@H]1C(O)=C(C(N)=O)C(=O)[C@@]2(O)C(O)=C3C(=O)c4c(O)cccc4[C@@](C)(O)[C@H]3C[C@@H]12 [TETRACYCLINE] | Pseudomonas aeruginosa | 32 |
| CCCOc1c2cc(C[N+](C)(CCO)CCO)cc1Cc1cc(C[N+](C)(CCO)CCO)cc(c1OCCC)Cc1cc(C[N+](C)(CCO)CCO)cc(c1OCCC)Cc1cc(C[N+](C)(CCO)CCO)cc(c1OCCC)C2.[Cl-].[Cl-].[Cl-].[Cl-] | Pseudomonas aeruginosa | 256 |

====

# Test system: Staphylococcus aureus
# procedure summary: Bactericidal activity against Staphylococcus aureus ATCC 6538 incubated for 24 hrs followed by replating on Mueller hinton agar plates and measured after 24 hrs
# Format: functional
# run parameters: ATCC 6538, 24 h
property: MBC (µg/mL)

| compound | value units | meas value |
| --- | --- | --- |
| O=C(N[C@H](CO)[C@H](O)c1ccc([N+](=O)[O-])cc1)C(Cl)Cl [CHLORAMPHENICOL] | µg/mL | 8 |
| CC1COc2c(N3CCN(C)CC3)c(F)cc3c(=O)c(C(=O)O)cn1c23 (centres undefined) [OFLOXACIN] | µg/mL | 0.5 |
| CCCOc1c2cc(C[N+](C)(CCO)CCO)cc1Cc1cc(C[N+](C)(CCO)CCO)cc(c1OCCC)Cc1cc(C[N+](C)(CCO)CCO)cc(c1OCCC)Cc1cc(C[N+](C)(CCO)CCO)cc(c1OCCC)C2.[Cl-].[Cl-].[Cl-].[Cl-] | µg/mL | 8 |
| CN(C)[C@@H]1C(O)=C(C(N)=O)C(=O)[C@@]2(O)C(O)=C3C(=O)c4c(O)cccc4[C@@](C)(O)[C@H]3C[C@@H]12 [TETRACYCLINE] | µg/mL | 4 |

====

# System: Pseudomonas aeruginosa
# procedure summary: Bactericidal activity against Pseudomonas aeruginosa ATCC 9027 incubated for 24 hrs followed by replating on Mueller hinton agar plates and measured after 24 hrs
# Assay type: functional
# run parameters: ATCC 9027, 24 h

| compound | MBC |
| --- | --- |
| O=C(N[C@H](CO)[C@H](O)c1ccc([N+](=O)[O-])cc1)C(Cl)Cl [CHLORAMPHENICOL] | 128 µg/mL |
| CN(C)[C@@H]1C(O)=C(C(N)=O)C(=O)[C@@]2(O)C(O)=C3C(=O)c4c(O)cccc4[C@@](C)(O)[C@H]3C[C@@H]12 [TETRACYCLINE] | 32 µg/mL |
| CC1COc2c(N3CCN(C)CC3)c(F)cc3c(=O)c(C(=O)O)cn1c23 (centres undefined) [OFLOXACIN] | 2 µg/mL |
| CCCOc1c2cc(C[N+](C)(CCO)CCO)cc1Cc1cc(C[N+](C)(CCO)CCO)cc(c1OCCC)Cc1cc(C[N+](C)(CCO)CCO)cc(c1OCCC)Cc1cc(C[N+](C)(CCO)CCO)cc(c1OCCC)C2.[Cl-].[Cl-].[Cl-].[Cl-] | 256 µg/mL |

Where these numbers come from: ChEMBL document CHEMBL4257473
